Would you kindly list pIC50 for each of these binders?
# target.of.assay: HLA-A*0206 (human)
# assay: inhibition of 125I-labelled probe peptide binding to purified HLA, gel filtration
# run.conditions: remark: other sources report otherwise
The scale used: pIC50 is minus the common logarithm of the concentration in molar units.

Supply measured pIC50 of SLQCVSLHLL (modifications not checked) [Peptide 1419.66 (HuK2.170) …] in your reply.
6.35

Name the recorded pIC50 of the item SLHLLSNDMCV (modifications not checked) [Peptide 1418.66 (HuK2.175.V11) …] in your answer.
5.64

Kindly indicate its recorded pIC50. Item: HLLSNDMCARV (modifications not checked) [Peptide 1418.67 (HuK2.177.V11) …]
7.43

Supply measured pIC50 of SVGCTGAVPV (modifications not checked) [Peptide 1418.35 (HuK2.11.V10) …] in your reply.
6.26

// fetch pIC50 given entry SLQCVSLHV (modifications not checked) [Peptide 1418.19 (HuK2.170.V9) …]
5.39
